condition_info: in ethyl acetate, 300.65 K
assay_endpoint: solubility (mole fraction)
Write the number on its own, no unit after it.

Enquiry: What value of measured solubility (mole fraction) is listed for Clc1cc(Cl)cc(Cl)c1 ?
Return: 0.253

###

condition_info: in acetone, 290.65 K
assay_endpoint: solubility (mole fraction)
Simply state the number, no unit and no words.

Enquiry: Using the record for Clc1cc(Cl)cc(Cl)c1 , report its solubility (mole fraction).
Return: 0.0876

###

condition_info: in acetone, 305.65 K
assay_endpoint: solubility (mole fraction)
Form: value (number only, do not type unit).

Enquiry: What value of solubility (mole fraction) has been reported for the following molecule? Clc1cc(Cl)cc(Cl)c1
Return: 0.154

###

condition_info: in n-butanol, 283.15 K
assay_endpoint: solubility (mole fraction)
Respond using a number only.

Enquiry: Given Clc1cc(Cl)cc(Cl)c1 , state its recorded solubility (mole fraction).
Return: 0.0592

###

condition_info: in acetone, 283.15 K
assay_endpoint: solubility (mole fraction)
Simply state the number, no unit and no words.

Enquiry: Name the reported solubility (mole fraction) value associated with the compound Clc1cc(Cl)cc(Cl)c1
Return: 0.0644

###

condition_info: in n-butanol, 273.15 K
assay_endpoint: solubility (mole fraction)

Enquiry: Return reported solubility (mole fraction); argument: Clc1cc(Cl)cc(Cl)c1
Return: 0.036

###

condition_info: in isopropanol, 285.65 K
assay_endpoint: solubility (mole fraction)
The reply should be a number, written without any unit.

Enquiry: Can you share its solubility (mole fraction)? I mean this compound: Clc1cc(Cl)cc(Cl)c1
Return: 0.0297

###

condition_info: in acetone, 295.65 K
assay_endpoint: solubility (mole fraction)
# output: bare number, no unit

Enquiry: Bench note: what solubility (mole fraction) did Clc1cc(Cl)cc(Cl)c1 show?
Return: 0.106

###

condition_info: in isopropanol, 295.65 K
assay_endpoint: solubility (mole fraction)
Form field (numeric): enter value without unit.

Enquiry: What value of solubility (mole fraction) has been reported for the following compound? Clc1cc(Cl)cc(Cl)c1
Return: 0.0509

###

condition_info: in toluene, 303.15 K
assay_endpoint: solubility (mole fraction)
// return just the number, without any unit appended

Enquiry: Which solubility (mole fraction) reading was recorded for the molecule Clc1cc(Cl)cc(Cl)c1 ?
Return: 0.463

###

condition_info: in ethyl acetate, 280.65 K
assay_endpoint: solubility (mole fraction)
Field format: numeric only.

Enquiry: Find the recorded solubility (mole fraction) belonging to Clc1cc(Cl)cc(Cl)c1 and report it.
Return: 0.123

###

condition_info: in toluene, 275.65 K
assay_endpoint: solubility (mole fraction)

Enquiry: Which solubility (mole fraction) is listed for Clc1cc(Cl)cc(Cl)c1 ?
Return: 0.184

###

condition_info: in n-butanol, 298.15 K
assay_endpoint: solubility (mole fraction)
Reply with just the number.

Enquiry: What measured solubility (mole fraction) goes with Clc1cc(Cl)cc(Cl)c1 ?
Return: 0.122

###

condition_info: in ethyl acetate, 290.65 K
assay_endpoint: solubility (mole fraction)
Reply with the value as a number alone.

Enquiry: Quick one: solubility (mole fraction) of Clc1cc(Cl)cc(Cl)c1 ?
Return: 0.179

###

condition_info: in n-butanol, 293.15 K
assay_endpoint: solubility (mole fraction)
Returns: the value as a bare number; no unit string appended.

Enquiry: Returns the measured solubility (mole fraction) for the input compound. Input: Clc1cc(Cl)cc(Cl)c1
Return: 0.0969
